Taken from patent US7399769B2.

target: human GABA A receptor α5β3γ2 (hα5) (Homo sapiens, UniProt P18507+P31644); construct: expressed in transfected cells; host or cells: HEK293 (transient transfection); membranes prepared from cell pellets; assay: [3H]flumazenil competition binding, human GABA A α5β3γ2 receptors in HEK293 cells; details: displacement of [3H]flumazenil 0.5 nM; HEK293 cells transiently transfected with human receptors; mean of two determinations
Recorded Metric: Ki (nM)
The response must be a number in nM with no trailing unit.

For Cc1onc(-c2ccccc2)c1-c1ncc2ccccn12 , write its Ki.
77.9
